testedSystem: cGMP-specific 3',5'-cyclic phosphodiesterase (Homo sapiens, UniProt O76074)
testProtocol: Inhibition of human recombinant PDE5A1 expressed in COS7 cells
Listed compounds paired with reported IC50
parameterMeasured: IC50 (nM)

compound: COc1ccc(-c2oc3c4c(cc(O)c3c(=O)c2O)OC(C)(C)CC4)cc1
unitString: nM
resultValue: 45500

compound: CC(C)=CCc1c(O)cc(O)c2c(=O)c(O)c(-c3ccc(O)c(O)c3)oc12
unitString: nM
resultValue: 700

compound: COc1ccc(-c2oc3c(CC=C(C)C)c(O)cc(O)c3c(=O)c2O)cc1
unitString: nM
resultValue: 2200

compound: COc1ccc(-c2oc3c(CC=C(C)C)c(O)cc(O)c3c(=O)c2O[C@@H]2O[C@@H](C)[C@H](O)[C@@H](O)[C@H]2O)cc1 [ICARISIDE II]
unitString: nM
resultValue: 160

----------
testedSystem: Cone cGMP-specific 3',5'-cyclic phosphodiesterase subunit alpha' (Homo sapiens, UniProt P51160)
Sequence (P51160 whole entry): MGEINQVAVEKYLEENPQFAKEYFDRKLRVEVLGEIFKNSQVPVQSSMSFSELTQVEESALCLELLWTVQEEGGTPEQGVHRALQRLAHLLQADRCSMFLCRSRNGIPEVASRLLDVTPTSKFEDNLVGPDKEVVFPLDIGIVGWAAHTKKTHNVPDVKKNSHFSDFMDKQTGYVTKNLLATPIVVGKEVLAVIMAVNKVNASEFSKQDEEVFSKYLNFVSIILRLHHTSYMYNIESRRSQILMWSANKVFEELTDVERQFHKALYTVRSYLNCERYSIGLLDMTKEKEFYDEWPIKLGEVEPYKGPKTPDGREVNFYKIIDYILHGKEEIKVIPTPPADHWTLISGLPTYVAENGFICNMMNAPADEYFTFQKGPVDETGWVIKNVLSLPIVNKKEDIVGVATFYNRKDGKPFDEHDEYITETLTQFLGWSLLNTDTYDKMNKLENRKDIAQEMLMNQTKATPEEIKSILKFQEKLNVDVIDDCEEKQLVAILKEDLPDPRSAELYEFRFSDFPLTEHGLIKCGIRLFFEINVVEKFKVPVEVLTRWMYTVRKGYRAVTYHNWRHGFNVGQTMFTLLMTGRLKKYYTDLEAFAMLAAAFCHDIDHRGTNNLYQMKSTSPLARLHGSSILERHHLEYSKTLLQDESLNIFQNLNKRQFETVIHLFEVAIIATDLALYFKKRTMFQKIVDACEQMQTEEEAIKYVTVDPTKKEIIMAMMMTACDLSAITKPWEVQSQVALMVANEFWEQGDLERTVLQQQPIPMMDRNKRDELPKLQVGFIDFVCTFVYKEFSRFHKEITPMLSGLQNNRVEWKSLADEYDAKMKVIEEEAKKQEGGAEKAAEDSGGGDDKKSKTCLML
testProtocol: Inhibition of human PDE6C
parameterMeasured: IC50 (µM)

molecularString: COc1ccc(-c2oc3c(CC=C(C)C)c(OCCO)cc(O)c3c(=O)c2OCCO)cc1
unitString: µM
resultValue: 30.9

Value source: ChEMBL document CHEMBL1156665
